Molecular target: T1, Monomeric monkey CD48-mmH (monkey)
T1 construct: Soluble monkey CD48 with a myc-myc-hexa-histidine C-terminal tag; the whole entry is the construct; also called mfCD48-mmH
T1 chain: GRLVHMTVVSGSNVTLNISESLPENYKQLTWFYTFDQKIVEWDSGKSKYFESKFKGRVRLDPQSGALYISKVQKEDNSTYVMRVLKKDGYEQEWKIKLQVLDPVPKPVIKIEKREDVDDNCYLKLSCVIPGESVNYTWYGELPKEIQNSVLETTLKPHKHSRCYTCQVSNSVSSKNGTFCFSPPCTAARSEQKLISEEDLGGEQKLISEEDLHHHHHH
Test: SPR (Biacore), antibody captured by anti-Fc, CD48 in solution, 37 C
// reported koff per item
# value in s⁻¹; strip the unit string

In the examples that follow, each entry is paired with its recorded koff.
H4H1774P (antibody, human IgG4, V domains shown, Human IgG4 Fc (H4H)) VH: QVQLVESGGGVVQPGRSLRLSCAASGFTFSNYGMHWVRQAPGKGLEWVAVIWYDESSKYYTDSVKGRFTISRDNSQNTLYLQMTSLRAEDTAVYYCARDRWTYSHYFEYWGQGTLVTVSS VL: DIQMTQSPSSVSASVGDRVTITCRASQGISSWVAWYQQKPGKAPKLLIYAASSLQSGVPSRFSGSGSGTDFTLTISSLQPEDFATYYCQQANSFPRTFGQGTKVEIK = 0.000267
H4H1781P (antibody, human IgG4, V domains shown, Human IgG4 Fc (H4H)) VH: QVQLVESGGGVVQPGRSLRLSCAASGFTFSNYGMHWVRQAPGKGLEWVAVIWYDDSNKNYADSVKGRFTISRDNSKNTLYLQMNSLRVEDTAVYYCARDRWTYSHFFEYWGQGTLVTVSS VL: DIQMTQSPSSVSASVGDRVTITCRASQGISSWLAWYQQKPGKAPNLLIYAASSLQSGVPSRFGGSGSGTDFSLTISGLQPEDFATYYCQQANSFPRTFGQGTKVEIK = 0.000307
H4H1763N (antibody, V domains shown, Human IgG4 Fc (H4H)) VH: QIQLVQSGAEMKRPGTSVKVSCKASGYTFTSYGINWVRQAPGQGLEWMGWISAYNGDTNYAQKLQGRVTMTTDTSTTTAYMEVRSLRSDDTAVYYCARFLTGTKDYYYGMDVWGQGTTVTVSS VL: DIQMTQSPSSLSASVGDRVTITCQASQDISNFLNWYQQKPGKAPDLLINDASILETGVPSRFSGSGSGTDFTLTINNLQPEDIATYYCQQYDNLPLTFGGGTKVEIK = 0.00133
H4H1778P (antibody, human IgG4, V domains shown, Human IgG4 Fc (H4H)) VH: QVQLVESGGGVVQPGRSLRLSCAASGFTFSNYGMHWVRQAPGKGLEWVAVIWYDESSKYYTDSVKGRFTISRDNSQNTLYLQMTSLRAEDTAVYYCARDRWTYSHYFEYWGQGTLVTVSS VL: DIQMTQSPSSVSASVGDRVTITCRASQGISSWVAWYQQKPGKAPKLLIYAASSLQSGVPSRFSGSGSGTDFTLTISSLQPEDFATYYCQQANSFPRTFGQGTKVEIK = 0.000253

Problem: Returns the measured koff for the input binder. Input: H4H1707N (antibody, V domains shown, Human IgG4 Fc (H4H)) VH: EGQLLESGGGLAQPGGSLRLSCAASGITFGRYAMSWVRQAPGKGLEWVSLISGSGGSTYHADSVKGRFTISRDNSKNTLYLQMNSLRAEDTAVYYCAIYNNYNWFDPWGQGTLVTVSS VL: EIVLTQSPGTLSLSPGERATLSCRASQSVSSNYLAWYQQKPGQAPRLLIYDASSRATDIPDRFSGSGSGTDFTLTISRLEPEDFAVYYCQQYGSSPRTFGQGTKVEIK
Result: 0.00122

The reported measurements were obtained from patent US20130230533A1.
